Test system: HCC-2998 colon
protocol_details: NCI tumour cell line growth inhibition, 48 h; in the data active = GI50 below about 0.43 µM; inactive = the rest
Could you please pick one outcome from this set? active, inactive

Would you please look over these solved cases?
compound | category_label
C=C1C(=O)C23CC1CCC2C12CO[C@@]3(O)[C@@H](O)C1C(C)(C)C=CC2=O (stereo partly specified) | inactive
NCCn1c2c(c3ccccc3c1=O)C(=O)c1ccccc1-2 | active
CCCCCCCCCCCCNC(=O)[C@H]1CSC(c2ccsc2)N1 (stereo partly specified) | inactive
COc1ccc(-c2nn(-c3cccc(Cl)c3)cc2/C=C2\C(=N)N(c3ccccc3)N=C2N)cc1 | inactive

# next compound below
**Query** Per the assay record, what outcome was assigned to "COc1ccccc1-c1nccc(COc2ccccc2C[C@@H](Oc2ncnc3sc(-c4ccc(F)cc4)c(-c4ccc(OCCN5CCN(C)CC5)c(Cl)c4C)c23)C(=O)O)n1" ?
**Result** inactive
